Test: Solubilities of clonazepam in water-containing solvents
Type: physicochemical
Settings: diethylene glycol monoethyl ether (DEGEE), neat solvent, 25 °C, organic solvent or mixture, Diethylene glycol monoethyl ether 100% solvent, 0% water, 25° C. (neat, from Example 11)
Method: The vials were stored at 25° C. for approximately 1 day. Prior to sampling, the vials were centrifuged at 5000 rpm for 2 minutes at 23° C. The results are shown below; neat solvent solubilities from Example 11 are included for reference. Increased water content decreases solubility substantially.
Measurement kind: solubility (mg/mL)
Use mg/mL as the unit, but write only the number.

Q) Determine its reported solubility: `O=C1CN=C(c2ccccc2Cl)c2cc([N+](=O)[O-])ccc2N1`
A) 41.8

###

Test: Solubilities of clonazepam in water-containing solvents
Assay type: physicochemical
Settings: 25 °C, pH 6.8, aqueous with cosolvent or surfactant or cyclodextrin, kinetic from dmso stock, Diethylene glycol monoethyl ether 20% solvent, 80% pH6.8 buffered water
Method: The vials were stored at 25° C. for approximately 1 day. Prior to sampling, the vials were centrifuged at 5000 rpm for 2 minutes at 23° C. The results are shown below; neat solvent solubilities from Example 11 are included for reference. Increased water content decreases solubility substantially.
Measurement kind: solubility (µg/mL)
Use µg/mL as the unit, but write only the number.

Q) Determine its reported solubility: `O=C1CN=C(c2ccccc2Cl)c2cc([N+](=O)[O-])ccc2N1`
A) 300

###

Assay: Drug recovery, degradation and binding to nasal sheep mucosa
Format: in vitro ADME
Conditions: sheep nasal mucosa (excised tissue) in buffer, 37° C., buffer pH 6 (10% ethanol), 48 h, read-out: % recovery in the presence of nasal sheep mucosa
Measurement kind: recovery at 48 h, 10 μg/mL

Here is how some compounds turned out for recovery at 48 h, 10 μg/mL.
O=C1CN=C(c2ccccc2Cl)c2cc([N+](=O)[O-])ccc2N1	97.1%
CN1C(=O)CN=C(c2ccccc2)c2cc(Cl)ccc21	125%

# ---- query compound ----
Q) Determine its reported recovery at 48 h, 10 μg/mL: O=C1Nc2ccc(Cl)cc2C(c2ccccc2Cl)=NC1O (stereo not drawn)
A) 97%

###

Test: Solubilities of clonazepam in glycol ethers at 3 temperatures
Conditions: di(ethylene glycol) methyl ether, neat solvent, -15 °C, organic solvent or mixture, thermodynamic from solid
Measurement kind: solubility (mg/mL)
Use mg/mL as the unit, but write only the number.

Q) Determine its reported solubility: `O=C1CN=C(c2ccccc2Cl)c2cc([N+](=O)[O-])ccc2N1`
A) 58.1

###

Assay: Solubility of clonazepam in glycol ethers at 25° C.
Conditions: di(ethylene glycol) methyl ether, neat solvent, organic solvent or mixture, thermodynamic from solid
Measurement kind: solubility

Q) Determine its reported solubility: `O=C1CN=C(c2ccccc2Cl)c2cc([N+](=O)[O-])ccc2N1`
A) 56.4 mg/mL

###

Experiment: Solubilities of clonazepam in water-containing solvents
Assay type: physicochemical
Settings: 1,2-dimethyxoethane / pH 6.8 buffered water mixture (60:40), 25 °C, pH 6.8, aqueous with cosolvent or surfactant or cyclodextrin, kinetic from dmso stock, 1,2-dimethyxoethane 60% solvent, 40% pH6.8 buffered water, 25° C.
Description: The vials were stored at 25° C. for approximately 1 day. Prior to sampling, the vials were centrifuged at 5000 rpm for 2 minutes at 23° C. The results are shown below; neat solvent solubilities from Example 11 are included for reference. Increased water content decreases solubility substantially.
Measurement kind: solubility (µg/mL)
Use µg/mL as the unit, but write only the number.

Q) Determine its reported solubility: O=C1CN=C(c2ccccc2Cl)c2cc([N+](=O)[O-])ccc2N1 [Clonazepam]
A) 9200

###

Assay: Human pharmacokinetic study (oral, intravenous, intranasal cross-over)
Conditions: male, plasma, po, 1 mg
Measurement kind: AUC

Q) Determine its reported AUC: O=C1CN=C(c2ccccc2Cl)c2cc([N+](=O)[O-])ccc2N1 [Clonazepam]
A) ~95 ng·h/mL

###

Assay: Solubilities of clonazepam in glycol ethers at 3 temperatures
Conditions: 1,2-dimethyxoethane, neat solvent, -15 °C, organic solvent or mixture, thermodynamic from solid
Measurement kind: solubility (mg/mL)
Use mg/mL as the unit, but write only the number.

Q) Determine its reported solubility: `O=C1CN=C(c2ccccc2Cl)c2cc([N+](=O)[O-])ccc2N1`
A) 35.2

###

Assay: Human pharmacokinetic study (oral, intravenous, intranasal cross-over)
Conditions: male, plasma, other: intranasal, 1 mg, bioavailability relative to oral, intranasal 1 mg
Measurement kind: bioavailability (%)
Use % as the unit, but write only the number.

Q) Determine its reported bioavailability: O=C1CN=C(c2ccccc2Cl)c2cc([N+](=O)[O-])ccc2N1 [Clonazepam]
A) 61

###

Experiment: Solubilities of clonazepam in water-containing solvents
Format: physicochemical
Settings: 25 °C, pH 6.8, aqueous with cosolvent or surfactant or cyclodextrin, kinetic from dmso stock, Di (ethyleneglycol) diethyl ether 20% solvent, 80% pH6.8 buffered water
Measurement kind: solubility (µg/mL)
Use µg/mL as the unit, but write only the number.

Q) Determine its reported solubility: O=C1CN=C(c2ccccc2Cl)c2cc([N+](=O)[O-])ccc2N1 [Clonazepam]
A) 310

Where do these numbers come from? They come from patent US8609651B2.
